Data credit: paper PMC3817407

Biological target: T1, ECF14_3200
T1 chain: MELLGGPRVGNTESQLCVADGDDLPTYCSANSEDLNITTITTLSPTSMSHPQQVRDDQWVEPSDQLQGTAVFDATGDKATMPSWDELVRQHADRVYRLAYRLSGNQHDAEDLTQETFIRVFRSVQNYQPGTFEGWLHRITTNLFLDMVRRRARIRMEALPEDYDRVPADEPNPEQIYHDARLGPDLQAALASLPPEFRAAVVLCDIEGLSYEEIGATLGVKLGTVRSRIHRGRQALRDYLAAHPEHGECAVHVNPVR
Label t when fold repression < 10; otherwise f.

Binder	Category
AS35_3582 (protein) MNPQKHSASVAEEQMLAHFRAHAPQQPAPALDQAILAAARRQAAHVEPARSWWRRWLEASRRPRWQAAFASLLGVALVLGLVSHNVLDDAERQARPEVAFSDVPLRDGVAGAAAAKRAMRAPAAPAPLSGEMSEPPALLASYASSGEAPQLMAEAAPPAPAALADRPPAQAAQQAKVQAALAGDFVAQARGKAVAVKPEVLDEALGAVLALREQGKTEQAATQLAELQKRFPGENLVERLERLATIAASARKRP	f
AS22_4450 (protein) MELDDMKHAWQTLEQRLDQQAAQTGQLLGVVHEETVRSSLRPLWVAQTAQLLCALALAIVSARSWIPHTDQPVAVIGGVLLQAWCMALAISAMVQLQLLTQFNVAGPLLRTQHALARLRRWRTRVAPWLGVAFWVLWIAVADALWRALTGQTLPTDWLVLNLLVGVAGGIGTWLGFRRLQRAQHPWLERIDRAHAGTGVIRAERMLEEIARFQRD	t
AS11_987 (protein) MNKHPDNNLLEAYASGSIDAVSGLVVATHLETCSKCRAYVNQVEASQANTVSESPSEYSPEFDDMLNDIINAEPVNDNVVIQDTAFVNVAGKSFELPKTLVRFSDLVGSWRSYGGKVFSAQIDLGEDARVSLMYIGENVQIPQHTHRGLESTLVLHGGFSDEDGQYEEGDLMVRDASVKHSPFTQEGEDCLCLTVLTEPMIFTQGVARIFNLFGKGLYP	t
AS37_2513 (protein) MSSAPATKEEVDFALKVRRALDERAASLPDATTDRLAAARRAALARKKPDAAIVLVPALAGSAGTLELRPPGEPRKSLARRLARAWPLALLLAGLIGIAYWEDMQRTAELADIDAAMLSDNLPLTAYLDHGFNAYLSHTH	f

Say whether its fold repression is strictly beneath 10. Entry: AS14_1324 (protein) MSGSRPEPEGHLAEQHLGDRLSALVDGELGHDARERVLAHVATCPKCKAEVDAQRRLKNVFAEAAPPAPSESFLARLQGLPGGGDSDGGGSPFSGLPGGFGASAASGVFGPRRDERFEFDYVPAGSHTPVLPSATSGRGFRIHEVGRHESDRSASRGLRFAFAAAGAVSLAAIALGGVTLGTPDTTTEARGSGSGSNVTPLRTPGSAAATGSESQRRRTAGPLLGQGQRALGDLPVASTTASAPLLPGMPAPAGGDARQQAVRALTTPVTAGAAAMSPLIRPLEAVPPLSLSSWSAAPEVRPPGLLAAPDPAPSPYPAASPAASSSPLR
f
